Record set of pIC50 for target or system His-Tagged hOGA (human O-GlcNAcase) (Homo sapiens (Human)).
pIC50: −log10 of the molar value.

CC(c1ccc2scnc2c1)N1CCc2cc(S(C)(=N)=O)cnc2CC1 (racemic)    > 7.30
CSc1ccc2c(c1)CCCN(C(C)c1ccc3scnc3c1)C2 (racemic)    6.00 to 6.70
CC(=O)Nc1ccc2c(c1)CCCN(C(C)c1ccc3scnc3c1)C2 (racemic)    6.00 to 6.70
CC(c1ccc2scnc2c1)N1CCc2ccc(Br)cc2CC1 (racemic)    > 7.30
CC(c1ccc2scnc2c1)N1CCc2ccccc2CC1 (single isomer, unassigned) [Example 21]    > 7.30

Task: Which pIC50 is reported for this molecule? CC(c1ccc2scnc2c1)N1CCc2ccccc2CC1 (single isomer, unassigned) [Example 22]
Output: 6.00 to 6.70
